LD50 at 336 h by entry:
measurement protocol: Acute toxicity on mice (Litchfield and Wilcoxon)
condition notes: mouse, in vivo, po

molecule: CC(C)CCC(/C=C/c1ccc(Cl)cc1)=N\OCCCN1CCCC1
LD50 at 336 h: > 1000 mg/kg
//
molecule: CC(C)CCC(/C=C/c1ccc(Cl)cc1)=N/OCCC1CCCN1C (centres unmarked)
LD50 at 336 h: 1000 mg/kg
//
molecule: CC(C)CCC(/C=C/c1ccc(F)cc1)=N\OCCCN1CCCCC1
LD50 at 336 h: 500 to 1000 mg/kg
//
molecule: CC(C)CCC(/C=C/c1ccc(Br)cc1)=N\OCCCN1CCCCC1
LD50 at 336 h: > 1000 mg/kg
//
molecule: CCCCCCC(/C=C/c1ccc(Cl)cc1)=N\OCCN1CCCCC1
LD50 at 336 h: 500 to 1000 mg/kg

###

Tested on: Male Wistar rats
measurement protocol: Vogel test (drinking conflict test), anxiolytic effect
Format: in vivo, rat (Wistar)
condition notes: ip, 0.5 h; rat, intraperitoneally, half an hour before testing; read-out: MED (minimum effective dose), Vogel test
Protocol: 1.1. Vogel test (drinking conflict test) The anxiolytic effect was tested by using the method of Vogel et al. Male Wistar rats of 160 to 180 g body weight were kept free of food and drinking water for 24 and 48 hours, respectively. Test and carrier substances were administered intraperitoneally half an hour before testing. […] During 5 minutes the shocks tolerated by the animals in order to quench their thirst were counted. The effect of treatment was expressed as the % increase of the tolerated shocks. […]
Lab note: anything with minimal effective dose below 3 mg/kg is marked YES; values at 3 mg/kg or higher are marked NO.

molecule: CCC(/C=C/c1ccccc1)=N\OCCN(C)C
target system: Male Wistar rats
class: NO

molecule: CCC(/C=C/c1ccccc1)=N\OCC(C)CN(C)C (racemic)
target system: Male Wistar rats
class: YES

molecule: CC(C)CC(/C=C/c1ccccc1)=N\OCCN(C)C
target system: Male Wistar rats
class: NO

molecule: CC(C)CC(/C=C/c1ccccc1)=N\OCCN1CCCCC1
target system: Male Wistar rats
class: YES

molecule: CCCC(/C=C/c1ccccc1)=N\OCCN(CC)CC
target system: Male Wistar rats
class: NO

molecule: CC(C)CCC(/C=C/c1ccc(Cl)cc1)=N\OCCCN1CCCCC1
target system: Male Wistar rats
class: NO

molecule: CC(C)CCC(/C=C/c1ccc(Cl)cc1)=N\OCCCN(C)C
target system: Male Wistar rats
class: NO

molecule: CCC(/C=C/c1ccc(Cl)cc1)=N\OCC(C)CN(C)C (racemic)
target system: Male Wistar rats
class: NO

###

System: erosion of the stomach wall
measurement protocol: Cytoprotective effect, ethanol erosion (Robert)
Type: in vivo
condition notes: po; rat, 1 cm^3 abs. ethanol
Lab note: anything with ED50 below 2 mg/kg is marked label 1; values at 2 mg/kg or higher are marked label 0.

compound: CCCCCCC(/C=C/c1ccc(Cl)cc1)=N\OCCN1CCCCC1 [Example 3]
class: label 0

compound: CC(C)CCC(/C=C/c1ccc(Cl)cc1)=N\OCCCN1CCCCC1 [Example 9]
class: label 0

compound: CC(C)CCC(/C=C/c1ccc(Cl)cc1)=N/OCCC1CCCN1C (stereo not shown) [Example 40]
class: label 1

compound: COc1ccc2[nH]c([S+]([O-])Cc3ncc(C)c(OC)c3C)nc2c1 (stereo not shown) [Omeprazole, reference compound]
class: label 0

compound: CC(C)CC(/C=C/c1ccccc1)=N\OCCN(C)C [Example 17]
class: label 0

compound: CC(C)CCC(/C=C/c1ccc(F)cc1)=N\OCCCN1CCCCC1 [Example 38]
class: label 1

compound: CN1CCN(CC(=O)N2c3ccccc3C(=O)Nc3cccnc32)CC1 [Pirenzepine, reference compound]
class: label 0

###

measurement protocol: Acute toxicity on mice (Litchfield and Wilcoxon)
condition notes: mouse, in vivo, ip; mice, 14 days observation

compound: CC(C)CCC(/C=C/c1ccc(Cl)cc1)=N\OCC(O)CNC1CCCCC1 (racemic)
LD50 at 336 h: 30 to 100 mg/kg

###

minimal effective dose by entry:
Tested on: Male Wistar rats
measurement protocol: Vogel test (drinking conflict test), anxiolytic effect
Assay type: in vivo, rat (Wistar)
condition notes: ip, 0.5 h; rat, intraperitoneally, half an hour before testing; read-out: MED (minimum effective dose), Vogel test

compound: CC(C)CCC(/C=C/c1ccccc1)=N\OCCCN(C)C [Example 5]
display unit: mg/kg
qualifying sign: >
minimal effective dose: 30
--
compound: CCCC(/C=C/c1ccccc1)=N\OCCCN(C)C [Example 21]
display unit: mg/kg
qualifying sign: =
minimal effective dose: 0.03
--
compound: CCCC(C)(COC(N)=O)COC(N)=O [Meprobamate, reference compound]
display unit: mg/kg
qualifying sign: =
minimal effective dose: 25

###

target system: H^+ /K^+ -ATP-ase (Sus scrofa)
Construct: on partially purified pig's microsome specimen
Sequence (P19156 2-1034 limits assumed): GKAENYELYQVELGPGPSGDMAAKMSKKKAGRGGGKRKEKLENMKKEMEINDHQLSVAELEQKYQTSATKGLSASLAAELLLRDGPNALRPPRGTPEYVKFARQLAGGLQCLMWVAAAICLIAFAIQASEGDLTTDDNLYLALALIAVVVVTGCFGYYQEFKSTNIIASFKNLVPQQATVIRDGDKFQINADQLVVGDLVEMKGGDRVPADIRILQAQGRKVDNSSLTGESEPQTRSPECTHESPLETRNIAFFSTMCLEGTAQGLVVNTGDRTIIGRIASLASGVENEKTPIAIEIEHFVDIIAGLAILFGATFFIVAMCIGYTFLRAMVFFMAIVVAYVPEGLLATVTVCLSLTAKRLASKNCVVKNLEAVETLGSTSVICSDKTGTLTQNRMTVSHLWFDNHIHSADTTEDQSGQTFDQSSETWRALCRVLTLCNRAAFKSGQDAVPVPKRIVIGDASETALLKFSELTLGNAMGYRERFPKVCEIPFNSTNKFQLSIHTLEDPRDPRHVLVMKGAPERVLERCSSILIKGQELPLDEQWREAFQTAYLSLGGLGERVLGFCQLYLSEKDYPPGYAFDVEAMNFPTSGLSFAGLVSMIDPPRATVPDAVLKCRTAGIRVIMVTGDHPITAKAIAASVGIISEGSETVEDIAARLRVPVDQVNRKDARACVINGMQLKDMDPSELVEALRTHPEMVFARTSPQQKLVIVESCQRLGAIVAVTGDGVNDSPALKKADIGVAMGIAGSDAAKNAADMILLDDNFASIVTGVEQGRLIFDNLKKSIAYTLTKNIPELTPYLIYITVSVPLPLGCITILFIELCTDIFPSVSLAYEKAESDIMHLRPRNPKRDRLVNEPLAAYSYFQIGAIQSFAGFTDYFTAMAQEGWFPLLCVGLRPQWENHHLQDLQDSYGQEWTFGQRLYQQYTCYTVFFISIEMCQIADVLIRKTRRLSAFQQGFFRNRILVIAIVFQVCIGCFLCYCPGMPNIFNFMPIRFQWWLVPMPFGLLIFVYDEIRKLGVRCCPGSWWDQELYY
Sequence (P18434 whole entry partner): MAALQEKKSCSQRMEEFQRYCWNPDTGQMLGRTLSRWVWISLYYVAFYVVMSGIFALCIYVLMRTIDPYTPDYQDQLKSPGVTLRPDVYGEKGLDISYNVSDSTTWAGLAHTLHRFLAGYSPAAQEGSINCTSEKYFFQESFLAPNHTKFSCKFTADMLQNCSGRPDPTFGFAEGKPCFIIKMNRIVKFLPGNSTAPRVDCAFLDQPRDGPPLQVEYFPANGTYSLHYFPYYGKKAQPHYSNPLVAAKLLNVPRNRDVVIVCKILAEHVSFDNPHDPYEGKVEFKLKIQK
measurement protocol: H+/K+-ATP-ase inhibition on partially purified pig's microsome specimen
pIC50: −log10 of the molar value.
pIC50 by entry:

compound: CC(C)CCC(/C=C/c1ccc(Cl)cc1)=N/OCCC1CCCN1C (centres unmarked)
qualifying sign: =
pIC50: 5.00
//
compound: CC(C)CC(/C=C/c1ccccc1)=N\OCCN(C)C
qualifying sign: <
pIC50: 4.52
//
compound: CC(C)CCC(/C=C/c1ccc(Cl)cc1)=N\OCC(O)CN1CCCCC1 (racemic)
qualifying sign: =
pIC50: 4.68
//
compound: CCCCCCC(/C=C/c1ccc(Cl)cc1)=N\OCCN1CCCCC1
qualifying sign: =
pIC50: 5.00
//
compound: CC(C)CCC(/C=C/c1ccc(Cl)cc1)=N\OCCCN1CCCC1
qualifying sign: =
pIC50: 5.05
//
compound: CC(C)CCC(/C=C/c1ccc(Br)cc1)=N\OCCCN1CCCCC1
qualifying sign: =
pIC50: 5.15
//
compound: CC(C)CCC(/C=C/c1ccc(F)cc1)=N\OCCCN1CCCCC1
qualifying sign: =
pIC50: 4.77
//
compound: CC(C)CCC(/C=C/c1ccc(Cl)cc1)=N\OCCCN1CCCCC1
qualifying sign: =
pIC50: 4.92

###

measurement protocol: Acute toxicity on mice (Litchfield and Wilcoxon)
condition notes: mouse, in vivo, ip

compound: CC(C)CCC(/C=C/c1ccc(F)cc1)=N\OCCCN1CCCCC1
LD50 at 336 h: 100 to 300 mg/kg

compound: CC(C)CCC(/C=C/c1ccc(Cl)cc1)=N\OCC(O)CN1CCCCC1 (racemic)
LD50 at 336 h: 100 to 300 mg/kg

compound: CC(C)CCC(/C=C/c1ccc(Cl)cc1)=N/OCCC1CCCN1C (stereo not drawn)
LD50 at 336 h: 100 to 300 mg/kg

compound: CC(C)CCC(/C=C/c1ccc(Br)cc1)=N\OCCCN1CCCCC1
LD50 at 336 h: 100 to 300 mg/kg

compound: CC(C)CCC(/C=C/c1ccc(Cl)cc1)=N\OCCCN1CCCC1
LD50 at 336 h: 30 to 100 mg/kg

compound: CC(C)CCC(/C=C/c1ccc(Cl)cc1)=N\OCCCN1CCCCC1
LD50 at 336 h: 160 mg/kg

compound: CCCCCCC(/C=C/c1ccc(Cl)cc1)=N\OCCN1CCCCC1
LD50 at 336 h: 100 to 300 mg/kg

compound: CC(C)CCC(/C=C/c1ccc(Cl)cc1)=N\OCCCN1CCCCCC1
LD50 at 336 h: 30 to 100 mg/kg

compound: CC(C)CC(/C=C/c1ccccc1)=N\OCCN(C)C
LD50 at 336 h: 100 to 300 mg/kg

###

Test system: gastric-acid secretion
measurement protocol: Gastric-acid-secretion test (Shay)
Type: in vivo, rat
condition notes: po; rat, p.o., 4 hours after ligature; read-out: Acid-secretion inhibition, ED50
ED50 by entry:
readout name: ED50 (mg/kg)

molecule: CC(C)CCC(/C=C/c1ccc(Cl)cc1)=N\OCCCN1CCCC1
readout name: ED50
qualifying sign: <
quantitative result: 100
--
molecule: CC(C)CC(/C=C/c1ccccc1)=N\OCCN(C)C
readout name: ED50
qualifying sign: =
quantitative result: 166
--
molecule: CC(C)CCC(/C=C/c1ccc(Cl)cc1)=N/OCCC1CCCN1C (stereo not drawn)
readout name: ED50
qualifying sign: <
quantitative result: 100
--
molecule: CN1CCN(CC(=O)N2c3ccccc3C(=O)Nc3cccnc32)CC1 [Pirenzepine, reference compound]
readout name: ED50
qualifying sign: =
quantitative result: 7.9
--
molecule: COc1ccc2[nH]c([S+]([O-])Cc3ncc(C)c(OC)c3C)nc2c1 (stereo not drawn) [Omeprazole, reference compound]
readout name: ED50
qualifying sign: =
quantitative result: 3.9
--
molecule: CC(C)CCC(/C=C/c1ccc(F)cc1)=N\OCCCN1CCCCC1
readout name: ED50
qualifying sign: =
quantitative result: 37.7
--
molecule: CC(C)CCC(/C=C/c1ccc(Cl)cc1)=N\OCCCN1CCCCC1
readout name: ED50
qualifying sign: =
quantitative result: 107
